Target: Metabotropic glutamate receptor 5 (Homo sapiens)
Assay: Positive allosteric modification of human recombinant mGlu5 receptor expressed in U2OS cells assessed as potentiation of glutamate-induced Ca2+ flux in presence of EC20 glutamate
Sequence (P41594 whole entry): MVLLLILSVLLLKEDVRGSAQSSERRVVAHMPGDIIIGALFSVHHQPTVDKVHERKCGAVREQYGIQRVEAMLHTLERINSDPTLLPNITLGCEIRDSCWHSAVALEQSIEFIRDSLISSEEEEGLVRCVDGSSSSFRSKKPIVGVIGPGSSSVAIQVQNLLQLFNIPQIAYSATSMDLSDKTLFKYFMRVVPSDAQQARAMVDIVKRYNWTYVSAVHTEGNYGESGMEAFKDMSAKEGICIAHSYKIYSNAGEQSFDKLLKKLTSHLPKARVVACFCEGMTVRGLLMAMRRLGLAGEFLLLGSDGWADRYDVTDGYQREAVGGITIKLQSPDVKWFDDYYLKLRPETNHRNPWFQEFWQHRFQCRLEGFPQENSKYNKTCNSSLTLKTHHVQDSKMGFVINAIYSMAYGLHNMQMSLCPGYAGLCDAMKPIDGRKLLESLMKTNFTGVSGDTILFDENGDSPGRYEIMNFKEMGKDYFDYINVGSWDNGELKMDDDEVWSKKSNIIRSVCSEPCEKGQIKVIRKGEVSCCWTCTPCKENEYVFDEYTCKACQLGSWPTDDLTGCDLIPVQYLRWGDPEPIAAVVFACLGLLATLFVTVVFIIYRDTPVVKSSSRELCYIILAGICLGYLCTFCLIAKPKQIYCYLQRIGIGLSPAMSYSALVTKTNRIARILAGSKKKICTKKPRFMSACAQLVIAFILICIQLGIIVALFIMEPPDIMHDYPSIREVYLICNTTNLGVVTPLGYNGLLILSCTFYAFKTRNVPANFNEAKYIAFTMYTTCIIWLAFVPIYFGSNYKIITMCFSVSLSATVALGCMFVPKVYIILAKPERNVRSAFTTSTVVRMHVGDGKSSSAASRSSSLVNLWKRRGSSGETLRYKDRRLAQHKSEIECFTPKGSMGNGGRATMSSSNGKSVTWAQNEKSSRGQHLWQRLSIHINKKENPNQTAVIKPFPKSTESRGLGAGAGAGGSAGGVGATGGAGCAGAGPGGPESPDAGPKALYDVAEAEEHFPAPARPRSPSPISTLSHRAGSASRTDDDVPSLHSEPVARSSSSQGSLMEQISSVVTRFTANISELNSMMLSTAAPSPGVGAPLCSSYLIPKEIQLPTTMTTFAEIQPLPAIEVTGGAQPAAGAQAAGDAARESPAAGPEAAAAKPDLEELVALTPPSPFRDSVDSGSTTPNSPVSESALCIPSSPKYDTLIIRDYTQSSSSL
pEC50: −log10 of the molar value.
measurementLabel: pEC50

INSERT INTO assay_data (molecule, measurementlabel, assayresult) VALUES
  ('Fc1ccc(-c2noc(C3CCc4c(nnn4C4CCOC4)C3)n2)cc1 (configuration not stated)', 'pEC50', 6.40),
  ('CC(C)(C)n1nnc2c1CCC(c1nnc(-c3ccc(F)cc3)o1)C2 (racemic)', 'pEC50', 5.50),
  ('CC(C)(C)n1nnc2c1CCC(c1noc(-c3ccc(F)cc3)n1)C2 (configuration not stated)', 'pEC50', 8.30),
  ('CC(C)n1nnc2c1CCC(c1nc(-c3ccc(F)cc3)no1)C2 (racemic)', 'pEC50', 6.40),
  ('Fc1ccc(-c2noc(C3CCc4c(nnn4C4CCCC4)C3)n2)cc1 (stereo in doubt; 10)', 'pEC50', 6.40);

[I] Fc1ccc(-c2noc(C3CCc4c(nnn4C4CCCC4)C3)n2)cc1 (stereo in doubt; 9)
[II] CC(C)(C)n1nnc2c1CCC(c1nc(-c3ccc(C#N)cc3)no1)C2 (configuration not stated)
[III] CN1CCC(n2nnc3c2CCC(c2nc(-c4ccc(F)cc4)no2)C3)CC1 (racemic)
[IV] CC(C)(C)n1nnc2c1CCC(n1cnc(-c3ccc(F)cc3)n1)C2 (configuration not stated)
stdin: Put the items in sequence by pEC50, from largest down. Labels, requested order.
stdout: I, IV, II, III
(I: 7.50, IV: 7.30, II: 7.10, III: 5.40)

---

Target: Metabotropic glutamate receptor 5 (Homo sapiens, UniProt P41594)
Assay: Positive allosteric modification of human recombinant mGlu5 receptor expressed in U2OS cells assessed as Ca2+ flux upto 25 uM relative to glutamate
Type: functional, cell-based
Sequence (P41594 21-1212 limits assumed): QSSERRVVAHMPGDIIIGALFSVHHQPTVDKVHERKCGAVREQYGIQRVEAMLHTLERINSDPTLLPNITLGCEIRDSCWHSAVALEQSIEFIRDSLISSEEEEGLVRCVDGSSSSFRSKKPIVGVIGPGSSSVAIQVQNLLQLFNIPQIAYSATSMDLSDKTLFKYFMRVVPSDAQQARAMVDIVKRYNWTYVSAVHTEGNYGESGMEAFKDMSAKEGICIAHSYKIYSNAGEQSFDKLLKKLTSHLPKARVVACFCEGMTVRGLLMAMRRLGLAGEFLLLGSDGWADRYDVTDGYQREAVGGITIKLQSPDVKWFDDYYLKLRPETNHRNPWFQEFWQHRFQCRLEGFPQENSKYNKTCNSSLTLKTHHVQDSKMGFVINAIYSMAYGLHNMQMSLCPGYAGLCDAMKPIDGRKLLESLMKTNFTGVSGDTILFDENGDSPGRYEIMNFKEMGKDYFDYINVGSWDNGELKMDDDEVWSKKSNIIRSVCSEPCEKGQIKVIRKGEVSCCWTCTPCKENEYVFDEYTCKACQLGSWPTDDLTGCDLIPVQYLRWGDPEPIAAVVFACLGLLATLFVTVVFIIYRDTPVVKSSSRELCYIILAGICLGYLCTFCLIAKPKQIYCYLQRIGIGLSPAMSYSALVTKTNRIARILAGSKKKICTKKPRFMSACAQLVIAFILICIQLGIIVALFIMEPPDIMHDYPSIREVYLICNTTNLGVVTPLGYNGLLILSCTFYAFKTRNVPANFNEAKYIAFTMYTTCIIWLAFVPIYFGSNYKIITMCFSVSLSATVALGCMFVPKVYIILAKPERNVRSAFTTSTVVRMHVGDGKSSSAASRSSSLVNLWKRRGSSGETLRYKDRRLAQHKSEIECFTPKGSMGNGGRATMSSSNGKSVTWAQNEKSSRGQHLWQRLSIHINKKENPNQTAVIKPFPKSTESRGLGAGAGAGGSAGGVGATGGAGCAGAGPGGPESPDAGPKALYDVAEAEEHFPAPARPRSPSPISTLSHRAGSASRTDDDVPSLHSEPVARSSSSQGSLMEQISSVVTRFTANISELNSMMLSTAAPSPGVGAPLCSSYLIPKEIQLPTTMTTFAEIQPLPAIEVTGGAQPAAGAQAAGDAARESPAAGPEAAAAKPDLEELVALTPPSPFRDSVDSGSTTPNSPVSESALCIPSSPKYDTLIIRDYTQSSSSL
measurementLabel: %max (%)

INSERT INTO measurements (compound, outputunit, assayresult) VALUES
  ('Fc1ccc(-c2noc(C3CCc4c(nnn4C4CCCC4)C3)n2)cc1 (stereo in doubt; 9)', '%', 103),
  ('CC1(n2nnc3c2CCC(c2nc(-c4ccc(F)cc4)no2)C3)CCOCC1 (stereo unspecified)', '%', 103),
  ('CC(C)(C)n1nnc2c1CCC(n1cnc(-c3ccc(F)cc3)n1)C2 (stereo unspecified)', '%', 80);

[I] CC(C)(C)n1nnc2c1CCC(c1nc(-c3ccc(C#N)cc3)no1)C2 (stereo unspecified)
[II] CC(C)(C)n1nnc2c1CCC(c1nc(N3CCOCC3)no1)C2 (racemic)
stdin: Pick one, I or II : lowest reported %max. API: response body contains the label of the selected item.
stdout: II
(II: 29%, I: 87%)

[I] CC(C)(C)n1nnc2c1CCC(c1nc(-c3ccc(F)cc3)no1)C2 (stereo unspecified)
[II] CC(C)Cc1noc(C2CCc3c(nnn3C(C)(C)C)C2)n1 (racemic)
stdin: Higher %max: I or II ? API: response body contains the label of the selected item.
stdout: I

[1] CC(C)(C)n1nnc2c1CCC(c1nc(Cc3ccc(F)cc3)no1)C2 (stereo unspecified)
[2] Fc1ccc(-c2nc(-c3ccc4c(c3)nnn4C3CCCC3)no2)cc1
stdin: Higher %max: 1 or 2 ? API: response body contains the label of the selected item.
stdout: 1

---

Assay: Tmax in Sprague-Dawley rat at 3 mg/kg, po
Type: ADME, organism-based
Conditions: in vivo
measurementLabel: Tmax (h)

INSERT INTO measurements (compound, assayresult) VALUES
  ('CC(C)(C#N)n1nnc2c1CCC(c1nc(-c3ccc(F)cc3)no1)C2 (stereo not drawn)', 6);

[P] CC(C)(C)n1nnc2c1CCC(c1nc(-c3ccc(F)cc3)no1)C2 (stereo not drawn)
[Q] CC(C)(C)n1nnc2c1CCC(n1cnc(-c3ccc(F)cc3)n1)C2 (stereo not drawn)
stdin: Higher Tmax: P or Q ? API: response body contains the label of the selected item.
stdout: P

---

Assay: Brain to plasma ratio in Sprague-Dawley rat at 3 mg/kg, po
Assay type: ADME, organism-based
Conditions: brain and plasma, read-out: BPR
measurementLabel: Kp

INSERT INTO assay_data (molecule, measurementlabel, assayresult) VALUES
  ('CC(C)(C)n1nnc2c1CCC(n1cnc(-c3ccc(F)cc3)n1)C2 (stereo not drawn)', 'Kp', 1.4);

[I] CC(C)(C#N)n1nnc2c1CCC(c1nc(-c3ccc(F)cc3)no1)C2 (stereo not drawn)
[II] CC(C)(C)n1nnc2c1CCC(c1nc(-c3ccc(F)cc3)no1)C2 (stereo not drawn)
stdin: Pick one, I or II : lowest reported Kp. API: response body contains the label of the selected item.
stdout: II

---

Experiment: Intrinsic clearance in rat liver microsomes at 3 uM
Format: ADME
Settings: read-out: CLH
measurementLabel: microsomal CLint at 3 µM (µL/min/mg)

INSERT INTO measurements (molecule, measurementlabel, outputunit, assayresult) VALUES
  ('CC(C)(C)n1nnc2c1CCC(n1cnc(-c3ccc(F)cc3)n1)C2 (stereo unspecified)', 'microsomal CLint at 3 µM', 'µL/min/mg', 20),
  ('Fc1ccc(-c2noc(C3CCc4c(nnn4C4CCCC4)C3)n2)cc1 (stereo in doubt; 9)', 'microsomal CLint at 3 µM', 'µL/min/mg', 146),
  ('CC(C)(C)n1nnc2c1CCC(c1nc(-c3ccc(F)cc3)no1)C2 (stereo unspecified)', 'microsomal CLint at 3 µM', 'µL/min/mg', 20);

[I] CC(C)(C#N)n1nnc2c1CCC(c1nc(-c3ccc(F)cc3)no1)C2 (stereo unspecified)
[II] Fc1ccc(-c2noc(C3CCc4c(nnn4C4CCOC4)C3)n2)cc1 (stereo unspecified)
[III] CC(C)(C)n1nnc2c1CCC(c1nc(Cc3ccc(F)cc3)no1)C2 (stereo unspecified)
stdin: Ascending sort, microsomal CLint at 3 µM. Labels, requested order.
stdout: I, II, III
(I: 6 µL/min/mg, II: 22 µL/min/mg, III: 120 µL/min/mg)

---

Assay: Oral bioavailability in Sprague-Dawley rat at 3 mg/kg
Type: ADME, organism-based
Details: in vivo
measurementLabel: bioavailability (%)

INSERT INTO measurements (compound, assayresult) VALUES
  ('CC(C)(C#N)n1nnc2c1CCC(c1nc(-c3ccc(F)cc3)no1)C2 (stereo not drawn)', 45);

[1] CC(C)(C)n1nnc2c1CCC(c1nc(-c3ccc(F)cc3)no1)C2 (stereo not drawn)
[2] CC(C)(C)n1nnc2c1CCC(n1cnc(-c3ccc(F)cc3)n1)C2 (stereo not drawn)
stdin: Pick one, 1 or 2 : lowest reported bioavailability. API: response body contains the label of the selected item.
stdout: 1
(1: 46%, 2: 114%)

---

Assay: Volume of distribution at steady state in Sprague-Dawley rat at 0.5 mg/kg, iv
Type: ADME, organism-based
Conditions: in vivo, read-out: Vdss
measurementLabel: Vd (L/kg)

[I] CC(C)(C)n1nnc2c1CCC(c1nc(-c3ccc(F)cc3)no1)C2 (configuration not stated)
[II] CC(C)(C)n1nnc2c1CCC(n1cnc(-c3ccc(F)cc3)n1)C2 (configuration not stated)
stdin: Pick one, I or II : lowest reported Vd. API: response body contains the label of the selected item.
stdout: II

---

Assay: Clearance in Sprague-Dawley rat at 0.5 mg/kg, iv
Format: ADME, organism-based
Settings: in vivo
measurementLabel: clearance (L/h/kg)

INSERT INTO results (compound, assayresult) VALUES
  ('CC(C)(C)n1nnc2c1CCC(c1nc(-c3ccc(F)cc3)no1)C2 (configuration not stated)', 0.66),
  ('CC(C)(C)n1nnc2c1CCC(n1cnc(-c3ccc(F)cc3)n1)C2 (configuration not stated)', 0.84);

---

Test: Kinetic solubility of compound in phosphate buffer saline at pH 7.4
Assay type: physicochemical
Conditions: phosphate buffered saline, read-out: Kinetic_solubility
measurementLabel: solubility kinetic (µM)

INSERT INTO assay_data (compound, measurementlabel, assayresult) VALUES
  ('CC(C)(C#N)n1nnc2c1CCC(c1nc(-c3ccc(F)cc3)no1)C2 (stereo not drawn)', 'solubility kinetic', 5.6),
  ('CC(C)(C)n1nnc2c1CCC(c1nc(-c3ccc(F)cc3)no1)C2 (stereo not drawn)', 'solubility kinetic', 6);

---

Assay: Intrinsic clearance in human liver microsomes at 3 uM
Assay type: ADME
Settings: read-out: CLH
measurementLabel: microsomal CLint at 3 µM (µL/min/mg)

[I] CC(C)(C#N)n1nnc2c1CCC(c1nc(-c3ccc(F)cc3)no1)C2 (stereo not drawn)
[II] CC(C)(C)n1nnc2c1CCC(c1nc(-c3ccc(F)cc3)no1)C2 (stereo not drawn)
[III] CC(C)(C)n1nnc2c1CCC(n1cnc(-c3ccc(F)cc3)n1)C2 (stereo not drawn)
stdin: Rank items: key microsomal CLint at 3 µM, increasing. Labels, requested order.
stdout: III, I, II

---

Target: UniProt:Q12809
Sequence (Q12809 whole entry): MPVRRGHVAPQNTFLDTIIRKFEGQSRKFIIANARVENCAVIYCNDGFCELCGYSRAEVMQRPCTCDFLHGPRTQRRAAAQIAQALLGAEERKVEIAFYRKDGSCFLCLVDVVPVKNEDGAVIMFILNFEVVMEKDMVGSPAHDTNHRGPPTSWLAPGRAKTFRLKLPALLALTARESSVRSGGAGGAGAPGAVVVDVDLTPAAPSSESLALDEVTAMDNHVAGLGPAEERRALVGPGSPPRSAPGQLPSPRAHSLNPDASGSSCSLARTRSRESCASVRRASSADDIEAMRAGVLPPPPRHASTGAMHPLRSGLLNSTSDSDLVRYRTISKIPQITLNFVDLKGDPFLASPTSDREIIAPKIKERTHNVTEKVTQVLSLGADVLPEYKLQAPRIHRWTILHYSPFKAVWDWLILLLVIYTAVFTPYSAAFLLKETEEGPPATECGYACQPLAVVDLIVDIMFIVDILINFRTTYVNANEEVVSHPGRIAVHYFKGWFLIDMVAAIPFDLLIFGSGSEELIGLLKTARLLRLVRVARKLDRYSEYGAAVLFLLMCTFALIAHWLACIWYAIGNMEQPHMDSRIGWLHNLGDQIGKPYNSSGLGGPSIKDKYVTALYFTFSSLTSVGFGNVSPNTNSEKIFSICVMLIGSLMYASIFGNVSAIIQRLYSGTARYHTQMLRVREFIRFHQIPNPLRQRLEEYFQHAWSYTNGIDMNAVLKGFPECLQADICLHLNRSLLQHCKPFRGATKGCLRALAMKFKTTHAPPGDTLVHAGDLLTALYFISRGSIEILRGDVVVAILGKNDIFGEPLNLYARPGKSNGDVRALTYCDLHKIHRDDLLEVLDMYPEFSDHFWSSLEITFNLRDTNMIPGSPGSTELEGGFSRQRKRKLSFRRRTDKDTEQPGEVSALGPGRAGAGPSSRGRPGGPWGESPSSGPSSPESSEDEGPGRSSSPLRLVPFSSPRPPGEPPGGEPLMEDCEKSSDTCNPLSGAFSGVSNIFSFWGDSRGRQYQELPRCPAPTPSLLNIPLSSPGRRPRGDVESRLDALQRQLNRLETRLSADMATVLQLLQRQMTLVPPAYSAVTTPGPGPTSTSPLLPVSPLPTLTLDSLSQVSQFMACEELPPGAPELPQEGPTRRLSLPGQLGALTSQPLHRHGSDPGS
measurementLabel: pIC50
Field pIC50 (float): negative decimal logarithm of the concentration in molar.

stdin: Bench note: what pIC50 did CC(C)(C)n1nnc2c1CCC(n1cnc(-c3ccc(F)cc3)n1)C2 (stereo unspecified) show?
stdout: 5.20
